# credit: patent US8076287B2

# Experiment description: In vivo acute toxicity (MTD)
# Design: species or system CD-1 nu/nu mice
# Cond: CD-1 nu/nu, mouse, iv, saline with 10% EtOH and 7.5% polysorbate 80, read-out: maximum tolerated dose (MTD)
Measurement type: MTD (mg/kg)
Give the value, in units of mg/kg, as a plain number.

// returns reported MTD for input CCC1OC(O)(C(C)(O)C(=O)NC2C(=O)N3NCCCC3C(=O)N(O)CC(=O)N3NCCCC3C(=O)N3CCC(C)(O)C3C(=O)N(O)C(C(C)C)C(=O)OC2C(C)C)CCC1CC(C)C (stereo not shown) [Compound 1]
2.5

----------
# Experiment description: In vivo acute toxicity (MTD)
# Set-up: species or system CD-1 nu/nu mice
# Cond: CD-1 nu/nu, mouse, ip, saline with 10% EtOH and 7.5% polysorbate 80, read-out: maximum tolerated dose (MTD)
Measurement type: MTD

// returns reported MTD for input CCC1OC(O)(C(C)(O)C(=O)NC2C(=O)N3NCCCC3C(=O)N(O)CC(=O)N3NCCCC3C(=O)N3CCC(C)(O)C3C(=O)N(O)C(C(C)C)C(=O)OC2C(C)C)CCC1CC(C)C (stereo not shown) [Compound 1]
≥ 5 mg/kg
